- STUDY SYSTEM: Integrin alpha-8/beta-1 (Homo sapiens, UniProt P05556+P53708)
- Sequence (P05556 21-798 limits assumed): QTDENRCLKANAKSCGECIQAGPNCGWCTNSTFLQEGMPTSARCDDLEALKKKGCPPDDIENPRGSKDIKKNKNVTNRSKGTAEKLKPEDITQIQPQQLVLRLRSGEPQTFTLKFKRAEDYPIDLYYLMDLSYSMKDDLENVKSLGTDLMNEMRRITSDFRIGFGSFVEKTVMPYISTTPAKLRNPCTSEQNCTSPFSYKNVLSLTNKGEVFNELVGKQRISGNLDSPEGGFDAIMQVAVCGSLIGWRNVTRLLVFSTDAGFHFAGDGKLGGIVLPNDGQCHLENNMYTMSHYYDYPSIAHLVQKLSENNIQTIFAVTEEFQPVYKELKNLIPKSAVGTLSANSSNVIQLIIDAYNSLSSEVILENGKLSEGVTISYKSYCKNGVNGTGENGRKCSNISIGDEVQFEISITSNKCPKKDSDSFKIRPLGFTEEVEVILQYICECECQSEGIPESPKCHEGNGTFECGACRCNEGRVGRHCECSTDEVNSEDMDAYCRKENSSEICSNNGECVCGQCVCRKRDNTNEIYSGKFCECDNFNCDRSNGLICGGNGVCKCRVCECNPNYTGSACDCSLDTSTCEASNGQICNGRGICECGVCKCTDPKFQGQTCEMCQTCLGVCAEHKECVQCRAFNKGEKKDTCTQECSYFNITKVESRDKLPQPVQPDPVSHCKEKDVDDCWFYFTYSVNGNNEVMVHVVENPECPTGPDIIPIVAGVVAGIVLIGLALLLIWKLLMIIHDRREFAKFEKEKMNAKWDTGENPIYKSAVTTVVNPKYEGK
- Sequence (P53708 39-906 limits assumed): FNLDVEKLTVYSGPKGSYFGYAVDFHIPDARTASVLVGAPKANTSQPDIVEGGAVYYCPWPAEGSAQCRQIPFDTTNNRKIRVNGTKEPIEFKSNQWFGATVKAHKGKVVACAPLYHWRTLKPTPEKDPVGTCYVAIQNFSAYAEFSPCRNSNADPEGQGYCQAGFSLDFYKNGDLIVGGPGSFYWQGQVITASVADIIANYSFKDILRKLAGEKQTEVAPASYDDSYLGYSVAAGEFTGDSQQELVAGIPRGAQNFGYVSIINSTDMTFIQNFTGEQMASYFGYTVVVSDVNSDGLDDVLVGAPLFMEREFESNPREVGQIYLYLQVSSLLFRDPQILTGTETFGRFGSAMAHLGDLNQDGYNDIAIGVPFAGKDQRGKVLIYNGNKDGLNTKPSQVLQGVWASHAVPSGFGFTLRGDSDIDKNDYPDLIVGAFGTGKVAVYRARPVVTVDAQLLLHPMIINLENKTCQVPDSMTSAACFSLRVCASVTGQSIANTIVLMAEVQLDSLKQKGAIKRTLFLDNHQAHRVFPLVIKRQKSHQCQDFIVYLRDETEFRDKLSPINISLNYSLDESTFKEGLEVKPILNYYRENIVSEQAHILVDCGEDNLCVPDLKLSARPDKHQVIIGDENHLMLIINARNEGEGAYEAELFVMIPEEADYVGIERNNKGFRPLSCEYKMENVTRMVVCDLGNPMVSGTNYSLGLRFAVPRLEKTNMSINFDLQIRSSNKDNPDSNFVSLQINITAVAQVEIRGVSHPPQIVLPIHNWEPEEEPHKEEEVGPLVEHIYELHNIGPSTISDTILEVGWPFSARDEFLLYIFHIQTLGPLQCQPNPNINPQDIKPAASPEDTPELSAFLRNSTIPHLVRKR
- Sequence (P53708 907-1063 limits assumed): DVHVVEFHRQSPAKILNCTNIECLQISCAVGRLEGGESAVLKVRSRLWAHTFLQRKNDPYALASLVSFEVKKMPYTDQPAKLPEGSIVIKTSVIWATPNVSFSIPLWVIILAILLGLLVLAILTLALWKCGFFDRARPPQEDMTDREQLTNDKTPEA
- TEST PROTOCOL: Inhibition of recombinant human Integrin alpha8beta1 mediated cellular adhesion expressed in HEK cells incubated for 24 hrs in presence of Ca2+ and Mg2+ by real-time cell analysis
pIC50: −log10 of the molar value.
METRIC NAME: pIC50

1) N=C(N)NCCCCC(=O)Nc1ccc(C[C@H](NC(=O)[C@@H]2CCCN2S(=O)(=O)c2ccccc2)C(=O)O)cc1 = 5.23

====

- STUDY SYSTEM: Integrin alpha-V/beta-3 (Homo sapiens, UniProt P05106+P06756)
- Sequence (P05106 27-788 limits assumed): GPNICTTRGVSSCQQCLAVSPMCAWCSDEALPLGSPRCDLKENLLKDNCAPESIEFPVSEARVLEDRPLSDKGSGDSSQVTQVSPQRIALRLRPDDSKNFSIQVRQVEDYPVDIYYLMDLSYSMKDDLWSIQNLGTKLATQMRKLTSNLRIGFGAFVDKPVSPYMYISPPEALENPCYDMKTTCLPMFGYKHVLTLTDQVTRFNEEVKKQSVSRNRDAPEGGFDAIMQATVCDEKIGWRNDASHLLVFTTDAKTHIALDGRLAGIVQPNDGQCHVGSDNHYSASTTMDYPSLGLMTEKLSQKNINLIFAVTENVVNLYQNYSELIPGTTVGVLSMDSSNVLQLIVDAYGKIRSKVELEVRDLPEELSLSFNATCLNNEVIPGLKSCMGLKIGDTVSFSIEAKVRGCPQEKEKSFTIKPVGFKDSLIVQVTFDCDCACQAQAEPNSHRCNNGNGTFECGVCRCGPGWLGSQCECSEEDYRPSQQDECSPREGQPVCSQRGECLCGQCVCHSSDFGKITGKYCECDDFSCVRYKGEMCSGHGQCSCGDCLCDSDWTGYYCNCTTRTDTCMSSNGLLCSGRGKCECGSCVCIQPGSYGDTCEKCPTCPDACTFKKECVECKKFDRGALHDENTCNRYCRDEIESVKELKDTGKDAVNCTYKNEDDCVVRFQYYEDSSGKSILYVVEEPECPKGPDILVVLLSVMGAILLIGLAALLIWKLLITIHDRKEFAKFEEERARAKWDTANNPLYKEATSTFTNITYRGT
- Sequence (P06756 31-889 limits assumed): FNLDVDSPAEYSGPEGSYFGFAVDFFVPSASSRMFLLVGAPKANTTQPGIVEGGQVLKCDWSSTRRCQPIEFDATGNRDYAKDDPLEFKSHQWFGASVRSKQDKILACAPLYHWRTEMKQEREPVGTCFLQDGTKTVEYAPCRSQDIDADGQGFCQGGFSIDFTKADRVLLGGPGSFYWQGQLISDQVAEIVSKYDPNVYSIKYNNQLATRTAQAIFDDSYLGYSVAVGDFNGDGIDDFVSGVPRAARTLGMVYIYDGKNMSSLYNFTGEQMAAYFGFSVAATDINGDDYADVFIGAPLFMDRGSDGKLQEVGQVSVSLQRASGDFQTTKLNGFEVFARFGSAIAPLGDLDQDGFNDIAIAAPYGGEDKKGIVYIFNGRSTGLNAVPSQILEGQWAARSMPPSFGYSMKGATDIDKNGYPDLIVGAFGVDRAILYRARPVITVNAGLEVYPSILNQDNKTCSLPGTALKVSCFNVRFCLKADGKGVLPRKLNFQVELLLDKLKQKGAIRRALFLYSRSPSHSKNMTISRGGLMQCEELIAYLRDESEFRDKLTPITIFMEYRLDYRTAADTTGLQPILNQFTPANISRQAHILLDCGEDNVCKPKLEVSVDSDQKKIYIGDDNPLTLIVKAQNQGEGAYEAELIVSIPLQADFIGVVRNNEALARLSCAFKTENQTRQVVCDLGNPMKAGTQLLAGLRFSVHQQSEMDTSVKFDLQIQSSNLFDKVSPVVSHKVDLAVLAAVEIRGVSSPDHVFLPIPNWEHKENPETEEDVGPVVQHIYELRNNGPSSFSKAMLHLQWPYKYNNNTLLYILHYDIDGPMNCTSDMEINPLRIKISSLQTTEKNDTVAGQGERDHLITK
- Sequence (P06756 891-1048 limits assumed): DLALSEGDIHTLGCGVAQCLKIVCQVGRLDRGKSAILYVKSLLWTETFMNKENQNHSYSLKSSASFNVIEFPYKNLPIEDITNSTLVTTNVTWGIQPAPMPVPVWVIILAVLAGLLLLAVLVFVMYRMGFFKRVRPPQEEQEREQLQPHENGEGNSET
- TEST PROTOCOL: Inhibition of recombinant human Integrin alphaVbeta3 mediated cellular adhesion expressed in HEK cells incubated for 24 hrs in presence of Ca2+ and Mg2+ by real-time cell analysis
- Assay type: cell-based
pIC50: −log10 of the molar value.
Reported pIC50 values for the following molecules.
METRIC NAME: pIC50

1. Cc1ccc(Cl)c(C(=O)N[C@@H](CNC(=O)Cn2c(=O)[nH]c3nc(C)c(F)cc32)C(=O)O)c1F = < 5.00
2. N=C(N)NCCCCC(=O)Nc1ccc(C[C@H](NC(=O)[C@@H]2CCCN2S(=O)(=O)c2ccccc2)C(=O)O)cc1 = < 5.00
